For each entry below, report its T/C value.
# System: P388 leukemia ip, CD2F1 mice, survival T/C
# protocolDetails: NCI In Vivo Anticancer Drug Screen. Data for tumor model P388 Leukemia (intraperitoneal) in CD2F1 (CDF1) mice
# statedConditions: endpoint: median survival time; dose: 200.0 mg/kg/injection; schedule: Q01DX009 (ip); vehicle: suspension in saline; higher = longer survival
Inconclusive results and toxic doses are left out.

See these solved cases before continuing.
1. O=C1CCSC(=S)N1c1ccc(Br)c(Cl)c1 | 106 % of control
2. Fc1ccc(CSC(=S)Nc2ccc(F)cc2)cc1 | 108 % of control
3. O=[N+]([O-])c1ccc(/C=C/Br)o1 | 103 % of control
4. COC(=O)c1ccccc1OC(C)=O | 100 % of control
5. O=C(O)C1CSC(c2coc3ccccc3c2=O)N1 (configuration not stated) | 108 % of control

Provide each entry's T/C from the list below.
1. Nc1nc2c(ncn2C2OC(CO)C(O)C2O)c(=O)[nH]1 (configuration not stated)
2. CCCC1C(=O)N2C(N(C)C)=Nc3ccc(C)cc3N2C1=O (configuration not stated)

Given back:
92 % of control
106 % of control

These data points were gathered from PubChem BioAssay AID330.
